Test system: 786-0 renal
Assay: NCI tumour cell line growth inhibition, 48 h
Experimental Readout: TGI

# returns recorded TGI (system: 786-0 renal) for COC1C2C[C@@H](O)CCC2C(C(=O)OCCl)C[C@H]1O (stereo not given in full)
> 100 µM

Next record, please: CC(C)=CCc1cc2c(cc1O)C1=C(C(=O)C3=C(C1=O)S(=O)(=O)CCN3)C(C=C(C)C)O2 (stereo not given)
7.03 µM

====

Test system: SF-268 CNS
Experiment: NCI tumour cell line growth inhibition, 48 h
Below, each entry is listed with its recorded TGI.

CC(C)Oc1c(C2(c3ccccc3)SCCCS2)c(=O)c1=O; > 100 µM
CCOC(=O)[C@@H](C)C[C@H](Cc1ccccc1)NC(=O)c1csc([C@@H](C[C@H](C(C)C)N(C)C(=O)[C@@H](NC(=O)[C@H]2CCCCN2C)C(C)(C)CC)OC(C)=O)n1; > 12.8 µM
O=C1CN(c2ccccc2)Cc2nc(Cl)ccc2N1; > 100 µM
C[N+](C)(CCCCCC[N+](C)(C)CCCN1C(=O)c2cccc3cccc(c23)C1=O)CCCN1C(=O)c2cccc3cccc(c23)C1=O; > 100 µM
CSc1ccc(C2=C(c3ccccc3)C(=O)OC2)cc1; > 64.7 µM
N#CCn1c(=O)c(Oc2ccc(F)cc2F)cc2cnc(NC3CCOCC3)nc21; > 25 µM

// TGI lookup, key: CCOC(=O)C(NC(=O)OCc1ccccc1)C(=O)O (centres undefined)
> 100 µM

Next record, please: Cc1ccc(/C=C2\Sc3scc(-c4ccccc4)[n+]3C2=O)cc1
45.5 µM

Next record, please: Brc1ccc(C2C3CSc4ccccc4C3=NN2c2ccccc2)cc1 (centres undefined)
> 100 µM

====

Test system: SF-268 CNS
Experiment: NCI tumour cell line growth inhibition, 48 h; in the data active = GI50 below about 0.43 µM; inactive = the rest
Use one of these outcomes when replying: label 1 = active, label 0 = inactive

Example results:
O=S1(=O)N2CN3CN(C2)CN1C3; label 0
N#CCn1c(=O)c(Oc2ccc(F)cc2F)cc2cnc(NC3CCOCC3)nc21; label 0
CC(C)=CCc1cc2c(cc1O)C1=C(C(=O)C3=C(C1=O)S(=O)(=O)CCN3)C(C=C(C)C)O2 (stereo not given); label 0
CCCCN(CCCC)C(=O)[C@H](CC)[C@@H]1CC[C@@H](C)[C@@H]([C@H](C)[C@@H](O)[C@@H](C)C(=O)[C@H](CC)C2O[C@]3(C=C[C@@H](O)[C@]4(CC[C@@](C)([C@H]5CC[C@](O)(CC)[C@H](C)O5)O4)O3)[C@H](C)C[C@@H]2C)O1 (stereo not given in full); label 0
COc1cccc(/C=C/C(=O)c2ccc3cc(OC)ccc3c2)c1; label 0
COc1ccc2c(c1)OC(N)=C(C#N)C2c1cc(OC)c(OC)c(OC)c1 (stereo not given); label 1
CCCCCC(=O)N[C@@H](c1ccco1)[C@@H](O)C(=O)O[C@H]1C[C@@]2(O)[C@@H](OC(=O)c3ccccc3)[C@@H]3[C@]4(OC(C)=O)CO[C@@H]4C[C@H](O)[C@@]3(C)C(=O)[C@H](OC(C)=O)C(=C1C)C2(C)C; label 1
CN=C(N)c1ccc(N=C(N)c2ccc(-c3ccc(C(N)=Nc4ccc(C(N)=NC)cc4)cc3)cc2)cc1; label 0

Would you mind telling me which call this test gave Oc1ccc(Cl)cc1C(c1cc(Cl)ccc1O)C(Cl)(Cl)Cl ?
label 0

Next record, please: CC(=O)Nc1ccc(C(=O)CCl)cc1
label 0

Next record, please: COc1cc2oc(-c3cccc(C(=O)Nc4ccc(Cl)cc4)c3)cc(=O)c2c(OC)c1OC
label 0

Next record, please: CSc1ccc(C2=C(c3ccccc3)C(=O)OC2)cc1
label 0

Next record, please: O=C1CC(c2c[nH]c3ccc(F)cc23)C(=O)N1 (stereo not given)
label 0

Next record, please: NS(=O)(=O)c1ccc(Nc2cc(-c3ccc(O)c(F)c3)[nH]n2)cc1
label 0

Next record, please: O=C1Nc2ccc(Cl)cc2/C1=C\c1c(-c2ccc(Cl)cc2)nc2sc(C3CC3)nn12
label 0

Next record, please: CN(C)c1ccc(/C=C\c2ccnc3ccccc23)cc1
label 0

Next record, please: COc1cnc2c(c1)C(=O)c1c-2n(CCCNC2=NCCS2)c(=O)c2cc(F)ccc12
label 1

Next record, please: COc1cc2c(c(OC)c1OC)-c1ccc(NN(C(=O)c3ccccc3)C(=O)c3ccccc3)c(=O)cc1[C@@H](NC(C)=O)CC2 (tested in a mixture with another compound)
label 0

Next record, please: COc1cc(CNCCCCCCN2C(=O)c3cccc4cccc(c34)C2=O)ccc1O
label 0

Next record, please: Clc1nccc2c(-c3csc(-c4c[nH]c5ccc(Br)cc45)n3)c[nH]c12
label 0
